- study_system: T1, 人4-1BB on Jurkat-4-1BB细胞 (human, UniProt Q07011 24-255)
- T1 construct: whole, on cells; the reporter line Jurkat-4-1BB-NFkB-luc carries the same receptor; also called Jurkat-4-1BB-NFkB-luc; CD137
- T1 sequence (Q07011 24-255): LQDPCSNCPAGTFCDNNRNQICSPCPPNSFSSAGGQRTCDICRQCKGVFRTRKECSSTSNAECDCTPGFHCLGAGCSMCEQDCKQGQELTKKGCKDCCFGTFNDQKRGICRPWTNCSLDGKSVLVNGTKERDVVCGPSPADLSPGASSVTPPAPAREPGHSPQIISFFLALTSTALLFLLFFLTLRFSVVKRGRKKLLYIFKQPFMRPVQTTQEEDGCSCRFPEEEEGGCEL
- experiment: FACS on Jurkat-4-1BB cells
test_readout: binding result

binder	test_readout	result
抗人4-1BB杂交瘤抗体8E9 (antibody, V domains shown, Mouse hybridoma antibody purified on Protein A) VH: QAQLQQSGPELVRPGTSVKMSCKTSGYSFTGYWMHWMKQRPGQGLEWIGMIDPSNSDTRLNQKFKDKATLNVDKSSNTAYMDFSSLTSEDSAVYYCARWRYYGYDGIAYWGQGTLVTVSA VL: DIVMTQSPSSLTVTAGEKVTVSCKSSQSLLNSGNQRNYLTWYQQKPGQPPKLLIYWASTRESGVPDHFTGSGSGTDFTLTISSVQAEDLAVYYCQNDYTYPFTFGGGTKLEIK	binding result	binds
抗人4-1BB杂交瘤抗体10B2 (antibody, V domains shown, Mouse hybridoma antibody purified on Protein A) VH: DVQLVESGGGLVQPGGSRKLSCAASGFTFSTFGLHWVRQAPEKGLEWVAYISSDSNTIYYADTMKGRFTISRDNPKNTLFLQLTSLRSEDTAVYYCTRGDPAYYGYGGRFVYALDFWGQGTSVAVSS VL: DVVVTQTPLSLPVSFGDQVSISCRSSQSLTNSYGHTYLSWYLHKPGQSPQLLIYGISIRFSGVPDRFSGSGSGTDFTLRISTVKPEDLGMYYCLQGTHQPWTFGGGTKLEIK	binding result	binds

Where these numbers come from: patent CN112538116A
